Origin of the recorded values: paper PMC9797722

Assay: Plasma pharmacokinetics of esomeprazole and esomeprazole sulfone in goats after IV and SC administration (HPLC, non-compartmental analysis)
Conditions: both, pygmy and pygmy-cross, plasma, iv, 1 mg/kg, Vss, Goat, 1 mg/kg IV (Table 3 comparison)
Value Type: Vd (L/kg)
Quick reminder: number only, in L/kg, skip the unit.

Q) For the compound shown here, COc1ccc2nc([S@@+]([O-])Cc3ncc(C)c(OC)c3C)[nH]c2c1 [Esomeprazole, esomeprazole] , give the reported Vd.
A) 0.23

* * *

Assay: Plasma pharmacokinetics of esomeprazole and esomeprazole sulfone in goats after IV and SC administration (HPLC, non-compartmental analysis)
Details: goats, 1 mg/kg IV single dose, plasma, median, n = 5
Value Type: AUMCinf (min²·µg/mL)
Quick reminder: number only, in min²·µg/mL, skip the unit.

Q) For the compound shown here, "COc1ccc2nc([S@@+]([O-])Cc3ncc(C)c(OC)c3C)[nH]c2c1" , give the reported AUMCinf.
A) 222
